FYI, the data here is from paper PMC11083148.

tested on: SK-BR3; test: MTT assay, antiproliferative activity; format: cell-based; conditions: Homo sapiens, SK-BR-3, 48h

- COMPOUND: "CCOC(=O)c1c(NC(=O)c2ccc(OC)c(OC)c2)n[nH]c1Nc1ccccc1"
  ASSAYED_SYSTEM: "SK-BR3"
  QUANTITY_UNIT: "%"
  Mean growth percentage at 10 µM: 82.5
- COMPOUND: "COc1ccc(/C=N/NC(=O)c2c(N)n[nH]c2Nc2ccccc2)cc1OC [10b]"
  ASSAYED_SYSTEM: "SK-BR3"
  QUANTITY_UNIT: "%"
  Mean growth percentage at 10 µM: 91.6
- COMPOUND: "COc1ccc(/C=N/NC(=O)c2c(Nc3ccccc3)nn(C)c2N)cc1OC [12b]"
  ASSAYED_SYSTEM: "SK-BR3"
  QUANTITY_UNIT: "%"
  Mean growth percentage at 10 µM: 94.2
- COMPOUND: "COc1ccc(/C=N/NC(=O)c2c(Nc3ccccc3)nn(C)c2N)cc1 [12a]"
  ASSAYED_SYSTEM: "SK-BR3"
  QUANTITY_UNIT: "%"
  Mean growth percentage at 10 µM: 95
- COMPOUND: "CCOC(=O)c1c(NC(=O)c2cc(OC)c(OC)c(OC)c2)nn(C)c1Nc1ccccc1"
  ASSAYED_SYSTEM: "SK-BR3"
  QUANTITY_UNIT: "%"
  Mean growth percentage at 10 µM: 103
